This section presents variants with their documented protein stability index values.
B1: CCDC70 (parent)
chain: FSFKVSRWMGLACFRSLAASSPSI

- Variants of: B1
- ASSAY METHOD TEXT: protein stability index of a GFP-peptide fusion (GPS, HEK-293T) (PSI 1-6); higher = more stable;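 further: lentivirally expressed fusions sorted by FACS into six bins by GFP to DsRed ratio, PSI derived from sequencing read proportions per bin multiplied by bin number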
- CONDITION SUMMARY: c terminus: a fixed tail appended
OBSERVATION TYPE: protein stability index

{"columns": ["ITEM SEQUENCE", "ASSAY RESULT"],
 "data": [
  ["FSFKVSRWMGLACFRSLAASSPTI", 2.67],
  ["FSFKVSRWMGLACFRSLAANSPSI", 2.46],
  ["FSFKVSRWMRLACFRSLAASSPSI", 2.37],
  ["FSFKVSRWMGLACFRSLAASQPSI", 2.23],
  ["FSFIVSRWMGLACFRSLAASSPSI", 3.39],
  ["FSFKVSRWMGLACFRDLAASSPSI", 2.86],
  ["FSFKVSRWMGLACFRSLAASFPSI", 3.31],
  ["FSFKVSRWMGLACFRSLAASSPSM", 2.23],
  ["FSFKVSRWMGLQCFRSLAASSPSI", 3.81],
  ["TSFKVSRWMGLACFRSLAASSPSI", 2.53],
  ["FSFSVSRWMGLACFRSLAASSPSI", 3.25]
]}

Just for reference, the supplement of paper PMC10567573 is where these values come from.
